# credit: PubChem BioAssay (NCI)

Measured TGI, listed per entry for reference.
# Tested on: PC-3 prostate
# ASSAY TEXT: NCI tumour cell line growth inhibition, 48 h

OCC1OC2OC3C(CO)OC(OC4C(CO)OC(OC5C(CO)OC(OC6C(CO)OC(OC7C(CO)OC(OC1C(O)C2O)C(O)C7O)C(O)C6O)C(O)C5O)C(O)C4O)C(O)C3O (stereo not drawn) (tested in a mixture with another compound) | > 100 µM
C/C=C1/CN2CCC34c5ccccc5N(C)C23C2CC1C4(C(=O)OC)C(O)O2 (stereo not drawn) | > 100 µM
N#Cc1c(N)nc(NCc2ccccc2)c(C#N)c1-c1ccccc1Cl | > 100 µM
COc1ccc(-c2nn(-c3cccc(NC(=O)c4cccc(C(F)(F)F)c4)c3)cc2-c2ccncc2)cc1Cl | > 100 µM
Brc1ccccc1C=NC12CC3CC(CC(C3)C1)C2 | > 100 µM

-- ask Quick one: TGI of `CC1=CC(=O)C(=CN2C(=O)/C(=C\c3cccnc3)NC2=S)C(=O)O1` ?
-- reply > 100 µM

-- ask Please give the measured TGI for this molecule: CC1OC(OC2C(CO)OC(O[C@H]3CC[C@@]4(C)C(=CC[C@H]5[C@@H]6C[C@@H]7O[C@](O)(CC[C@H](CO)COC8OC(CO)C(O)C(O)C8O)[C@@H](C)[C@@H]7[C@@]6(C)CC[C@@H]54)C3)C(OC3OC(C)C(O)C(O)C3O)C2O)C(O)C(O)C1O (stereo partly drawn)
-- reply > 100 µM

-- ask Which measured TGI value corresponds to `C(=NCCCN1CCN(CCCN=Cc2cccc3ccccc23)CC1)c1cccc2ccccc12` ?
-- reply > 100 µM

-- ask Query (molecule): `COc1cc(/C=C2\C(=O)N(c3ccccc3)c3ccccc32)cc(OC)c1OC` ; field requested: TGI
-- reply 16.1 µM

-- ask Recorded TGI of `N#C/C(=C1C=C/C(=N\O)C(Cl)=C\1)c1ccccc1` , please.
-- reply 11.7 µM

-- ask TGI lookup needed for `CCOC(=O)c1[nH]cc(C)c1-c1c[nH]c2ccccc12` , thanks.
-- reply > 82.7 µM

-- ask Any idea what its TGI is? The molecule is `CCCNC(=O)Cn1c(C)cc2ccccc21`
-- reply > 100 µM

-- ask Could you share which TGI value was measured for `CC[C@@H]1CC[C@@H]2[C@H](CC[C@]3(C)[C@@H](O)CC[C@@H]23)[C@H]1CO` ?
-- reply > 100 µM

-- ask Request the reported TGI associated with `Cc1c(-c2nnc(-c3ccc(F)cc3)o2)nnn1-c1ccnc2c(C(F)(F)F)cccc12`
-- reply > 100 µM

-- ask TGI for `O=C(NCCNc1nccc(-c2c(-c3cccc(O)c3)nc3sccn23)n1)Nc1cccc(C(F)(F)F)c1` ?
-- reply 12.6 µM

---

# System: HOP-92 NSCLC
# ASSAY TEXT: NCI tumour cell line growth inhibition, 48 h
Entries and their measured GI50 follow.

CCCC1=C(C(=O)OCC)C(c2ccccc2OC)C(C#N)=C(N)O1 (stereo not drawn) | 37.7 µM
CC(C)n1c(=O)n(C)c2cnc3cc(F)c(-c4ccc(OCCCN5CCCCC5)nc4)cc3c21 | 1.2 µM

Consider now this further compound.
-- ask Can you share its GI50? I mean this compound: `COc1cc(/C=C2\C(=O)N(c3ccccc3)c3ccccc32)cc(OC)c1OC`
-- reply 3.71 µM

---

For reference, GI50 measured on MDA-MB-435:

O=C(NCCNc1nccc(-c2c(-c3cccc(O)c3)nc3sccn23)n1)Nc1cccc(C(F)(F)F)c1 | 2040 nM

-- ask Query the reported GI50 for MDA-MB-435; item: `COc1ccc(CCN2CCC(Nc3nc4ccccc4n3Cc3ccc(F)cc3)CC2)cc1`
-- reply 1500 nM

-- ask What GI50 appears in the records for this compound with MDA-MB-435? `O=C(NC1CCCCC1)NS(=O)(=O)c1ccc(-n2nc3c(c2-c2ccc(Cl)cc2)Cc2ccccc2-3)cc1`
-- reply 8270 nM

-- ask What reported GI50 corresponds to CSC1=Nc2c(c(C)c(C)n2COC(CO)CO)C2=NC(=O)CC(C)N12 (stereo not given) on MDA-MB-435?
-- reply > 100000 nM

-- ask Fill in the recorded GI50 for this compound, with MDA-MB-435 as test system: `CCOC(=O)c1c(Cl)c2c(n1Cc1cccc(OC)c1)-c1oncc1CC2`
-- reply 298 nM

---

# System: SN12C renal
# ASSAY TEXT: NCI tumour cell line growth inhibition, 48 h
READOUT KIND: TGI (µM)
I only need the number, in µM, no unit after it.

Examples from the recorded data:
COc1cc(/C=C2\C(=O)N(c3ccccc3)c3ccccc32)cc(OC)c1OC | 24.7
N#Cc1c(-c2cccc(Cl)c2)cc(-c2ccc(Cl)cc2)nc1N | 34.4

Now, please, on to the next molecule.
-- ask Recorded TGI of O=C1CCC(N2Cc3c(C#CCCCNC(=O)c4cc5c(o4)C(=O)c4ccccc4C5=O)cccc3C2=O)C(=O)N1 (stereo unspecified) , please.
-- reply 3.25

---

# Tested on: SNB-75 CNS
# ASSAY TEXT: NCI tumour cell line growth inhibition, 48 h
compounds and their reported TGI
Reply numerically in µM, unit not repeated.

Known results for compounds:
CC(=O)OC1CC2C(C)(C)C(=O)C=C[C@]2(C)C2CCC3(C)C(c4ccoc4)[C@@H](O)[C@H]4O[C@]43[C@]12C (some centres undefined) | 57.3
CCOC(=O)c1c(Cl)c2c(n1Cc1cccc(OC)c1)-c1oncc1CC2 | 5.35

-- ask What measured TGI goes with COc1cc([C@@H]2c3cc4c(cc3[C@@H](OC3OC5COC(C)OC5C(OC(=O)CN5CCN(C)CC5)C3OC(=O)CN3CCN(C)CC3)C3COC(=O)[C@@H]32)OCO4)cc(OC)c1OC(=O)CN1CCN(C)CC1 (some centres undefined) ?
-- reply 84.9

---

# Test system: MDA-MB-231 breast
# ASSAY TEXT: NCI tumour cell line growth inhibition, 48 h; in the data active means GI50 below about 0.43 µM; inactive means the rest
Lab note: assign the record to one of active, inactive

For orientation, consider the following solved cases.
N#Cc1c(N)nc(NCc2ccccc2)c(C#N)c1-c1ccccc1Cl | inactive
Cc1c(-c2nnc(-c3ccc(F)cc3)o2)nnn1-c1ccnc2c(C(F)(F)F)cccc12 | inactive
CC(=O)OC1Oc2cc(C)c(C)cc2-c2oc(=O)c(-c3ccc(F)cc3)cc21 (stereo unspecified) | inactive
O=C1/C(=C/c2ccccc2F)CN(C(=O)C(Cl)Cl)C/C1=C\c1ccccc1F | active
CCN(CC)CCCC(Cc1ccccc1)Nc1c2ccc(Cl)cc2nc2ccc(OC)cc12 (stereo unspecified) | inactive
C/C(=C\CCc1ccsc1)CC/C=C(\C)CCCN1CCC(CO)CC1 | inactive
CCOC(=O)c1c(Cl)c2c(n1Cc1cccc(OC)c1)-c1oncc1CC2 | inactive
COc1cc(C2CC(c3ccccc3)=NN2C(C)=O)cc(OC)c1OC (stereo unspecified) | inactive
COc1ccc(OC)c(/C=C2\COc3ccc(O)c(O)c3C2=O)c1 | inactive
O=C(NCCNc1nccc(-c2c(-c3ccc(F)cc3)nc3sccn23)n1)c1ccccc1 | inactive

Now for another entry.
-- ask Which outcome was entered for the molecule `COc1ccc(-c2nn(-c3cccc(NC(=O)c4cccc(C(F)(F)F)c4)c3)cc2-c2ccncc2)cc1Cl` in this test?
-- reply inactive

---

# System: IGROV1 ovarian
# ASSAY TEXT: NCI tumour cell line growth inhibition, 48 h
Listed below: TGI values for each entry.
The response must be a number in µM with no trailing unit.

CC(=O)OC1CC2C(C)(C)C(=O)C=C[C@]2(C)C2CCC3(C)C(c4ccoc4)[C@@H](O)[C@H]4O[C@]43[C@]12C (stereo not given in full) | 46.2

Okay, next one:
-- ask // map `N#Cc1c(-c2cccc(Cl)c2)cc(-c2ccc(Cl)cc2)nc1N` to recorded TGI (system: IGROV1 ovarian)
-- reply 24.4

---

# System: A498 renal
# ASSAY TEXT: NCI tumour cell line growth inhibition, 48 h
Item-by-item account of TGI

The following compounds have reported results that may help.
COC(=O)C1(Cc2cccc(C)c2)Cc2c(C)cccc2C1=O (centres undefined) | > 100 µM
NC(=O)CCC(NC(=O)Cc1ccccc1)C(=O)O (centres undefined) (tested in a mixture with another compound) | > 8130 µM
CC1=NN(C(=O)CC(=O)Nc2cccc(C)c2)C(=O)C1N=Nc1ccc(S(=O)(=O)c2ccc(N=NC3C(=O)N(C(=O)CC(=O)Nc4cccc(C)c4)N=C3C)cc2)cc1 (centres undefined) | > 100 µM

From here, focus on the item given below.
-- ask TGI of `CCOC(=O)N1CCN(c2nc(C)n(-c3ccccc3)c(=S)c2C#N)CC1` on A498 renal?
-- reply > 100 µM

---

Let's look at some compounds and their measured GI50.
# System: RXF 393 renal
# ASSAY TEXT: NCI tumour cell line growth inhibition, 48 h

CC1OC(n2c3ccccc3c3c4c(c5c6ccccc6[nH]c5c32)C(=O)N(CCN2CCOCC2)C4=O)CC(O)C1O (centres undefined) | 2820 nM
O=C(Nc1ccc(OCc2nnc(-c3ccccc3)o2)c(F)c1)Nc1ccc(Cl)c(C(F)(F)F)c1 | 2620 nM
N#C/C(=C1C=C/C(=N\O)C(Cl)=C\1)c1ccccc1 | 4720 nM

// next item, GI50 requested
-- ask For `Nc1ccc(-c2nc3ccccc3o2)cc1S` , what is its reported GI50?
-- reply 29400 nM
